# Tested on: Micrococcus flavus ATCC 10240
# assay.remarks: in vitro minimum inhibitory concentration, Micrococcus flavus ATCC 10240
# Format: cell-based
# applied.conditions: ATCC10240; in vitro, Micrococcus flavus ATCC 10240; read-out: minimum inhibitory concentrations (MIC)
Binarize MIC at 0.1 µg/mL; below is yes, at or above is no.

Past entries and their recorded results:
{"columns": ["compound", "target.system", "answer.label"],
 "data": [
  ["CC[C@H]1OC(=O)[C@H](C)[C@@H](O[C@H]2C[C@@](C)(OC)[C@@H](O)[C@H](C)O2)[C@H](C)[C@@H](O[C@@H]2O[C@H](C)C[C@H](N(C)C)[C@H]2O)[C@](C)(O)C[C@@H](C)CN[C@H](C)[C@@H](O)[C@]1(C)O [Compound I]", "Micrococcus flavus ATCC 10240", "yes"],
  ["CC[C@H]1OC(=O)[C@H](C)[C@@H](O[C@H]2C[C@@](C)(OC)[C@@H](OC(C)=O)[C@H](C)O2)[C@H](C)[C@@H](O[C@@H]2O[C@H](C)C[C@H](N(C)C)[C@H]2OC(C)=O)[C@](C)(O)C[C@@H](C)CN(C(C)=O)[C@H](C)[C@@H](O)[C@]1(C)O [Compound III]", "Micrococcus flavus ATCC 10240", "no"],
  ["CC[C@H]1OC(=O)[C@H](C)[C@@H](O[C@H]2C[C@@](C)(OC)[C@@H](O)[C@H](C)O2)[C@H](C)[C@@H](O[C@@H]2O[C@H](C)C[C@H](N(C)C)[C@H]2O)[C@](C)(O)C[C@@H](C)CN[C@H](C)[C@H]2OC(=O)O[C@@]21C [Compound VI]", "Micrococcus flavus ATCC 10240", "no"]
]}

Now, please, on to the next compound.
Take the compound CC[C@H]1OC(=O)[C@H](C)[C@@H](O[C@H]2C[C@@](C)(OC)[C@@H](O)[C@H](C)O2)[C@H](C)[C@@H](O[C@@H]2O[C@H](C)C[C@H](N(C)C)[C@H]2O)[C@](C)(O)C[C@@H](C)CN(S(=O)(=O)c2ccc(C)cc2)[C@H](C)[C@@H](O)[C@]1(C)O [Compound VIII] and say whether its MIC is less than 0.1 µg/mL.
no
